Every entry's value here was drawn from PubChem BioAssay AID256.

Test system: CD2F1 mice, L1210 leukemia ip, survival T/C
Test: NCI In Vivo Anticancer Drug Screen. Data for tumor model L1210 Leukemia (intraperitoneal) in CD2F1 (CDF1) mice
Conditions: endpoint: mean survival time; dose: 12.5 mg/kg/injection; schedule: Q01DX009 (ip); vehicle: saline with Tween-80; higher = longer survival
Inconclusive results and toxic doses are left out. Residues, ends and D or L forms follow the SMILES beside them. *: point of attachment. Cbz = O=C(OCc1ccccc1)*
measured-endpoint: T/C

Example results:
                                   molecule  measured_endpoint            result
0                NC(=O)c1cc2c(N)[nH]nc2nc1N                T/C  103 % of control
1   O=[N+]([O-])c1c(Br)sc(Br)c1[N+](=O)[O-]                T/C   97 % of control
2  CC1(C)N=C(N)N=C(N)N1c1ccc(CCCCc2ccc(Cl)cc2Cl)cc1                T/C  102 % of control
3  NC(=O)CNC(=O)CNC(=O)CNC(=O)OCc1ccccc1 (Cbz-Gly-Gly-Gly-NH2)                T/C  105 % of control

Given the entry COc1cc(OC)c(NC(=O)Nc2cc(C)on2)cc1Cl , report its measured T/C.
98 % of control

Same for C/C(=N/N(C)C)c1ccc2ccccc2c1
97 % of control
